Value source: paper PMC11292009

tested on: myoglobin (Myo); test: Intact protein MS photoaffinity labeling screen, myoglobin; format: binding; details: intact protein MS after 10 min irradiation
RESULT_TYPE: MS labeling percentage, Myo (%)

1. Cc1c[nH]c(=O)n1-c1cccc(CNC(=O)CCC2(C)N=N2)c1: 0.2
2. CN(C)CC(=O)Nc1cccc(NC(=O)CCC2(C)N=N2)c1: 0.1
3. CC1(CCC(=O)NCCNC(=O)c2ccc(Cl)cc2)N=N1: 0.2
4. COC(=O)C(Cc1c[nH]c2ccccc12)NC(=O)CCC1(C)N=N1 (stereo not drawn): 0.1
5. CC1(CCC(=O)NCCNC(=O)c2ccncc2)N=N1: 0.4
6. CC1(CCC(=O)NCc2cccc(C(=O)OC(C)(C)C)c2)N=N1: 0.2
